Test system: NGP
Assay: IncuCyte live-cell imaging, antiproliferative effect
Type: cell-based
Conditions: Homo sapiens, 72 h, read-out: pGI50 (converted)
# note: exactly 50 nM is not below, so it is class 0; use class 1 for GI50 strictly under it

Compound	Experimental system	Cat
O=C1CCC(N2C(=O)c3ccc(N4CCN(CCOCCOCCNC(=O)[C@]5(Cc6cccc(Nc7nccs7)n6)CC[C@@H](Oc6cccc(Cl)c6F)CC5)CC4)cc3C2=O)C(=O)N1 (some centres unmarked)	NGP	class 0
O=C1CCC(Nc2ccc(N3CCN(C4CN(C(=O)[C@]5(Cc6cccc(Nc7nccs7)n6)CC[C@@H](Oc6cccc(Cl)c6F)CC5)C4)CC3)c(F)c2)C(=O)N1 (some centres unmarked)	NGP	class 1
O=C1CCC(N2C(=O)c3ccc(N4CCN(C(=O)COCCOCCNC(=O)[C@]5(Cc6cccc(Nc7nccs7)n6)CC[C@@H](Oc6cccc(Cl)c6F)CC5)CC4)cc3C2=O)C(=O)N1 (some centres unmarked)	NGP	class 0
O=C1CCN(c2ccc(N3CCN(CC4CN(C(=O)[C@]5(Cc6cccc(Nc7nccs7)n6)CC[C@@H](Oc6cccc(Cl)c6F)CC5)C4)CC3)nc2)C(=O)N1	NGP	class 1
O=C1CCN(Cc2ccc(C3CCN(C4CN(C(=O)[C@]5(Cc6cccc(Nc7nccs7)n6)CC[C@@H](Oc6cccc(Cl)c6F)CC5)C4)CC3)nc2)C(=O)N1	NGP	class 1
O=C1CCC(N2C(=O)c3ccc(N4CCN(CCNC(=O)[C@]5(Cc6cccc(Nc7nccs7)n6)CC[C@@H](Oc6cccc(Cl)c6F)CC5)CC4)cc3C2=O)C(=O)N1 (some centres unmarked)	NGP	class 1
O=C1CCC(N2C(=O)c3ccc(OCCOCCNC(=O)[C@]4(Cc5cccc(Nc6nccs6)n5)CC[C@@H](Oc5cccc(Cl)c5F)CC4)cc3C2=O)C(=O)N1 (some centres unmarked) [SK3277, reference compound]	NGP	class 0
O=C1CCC(N2C(=O)c3ccc(OCCOCCN4CCN(C(=O)[C@]5(Cc6cccc(Nc7nccs7)n6)CC[C@@H](Oc6cccc(Cl)c6F)CC5)CC4)cc3C2=O)C(=O)N1 (some centres unmarked)	NGP	class 1
Cc1cc(Nc2ccc(F)c(CC3(C(=O)N4CCC(CN5CCC(c6ccc(N7CCC(=O)NC7=O)cn6)CC5)CC4)CCN(Cc4cccc(Cl)c4F)CC3)n2)n[nH]1	NGP	class 0
O=C1CCN(c2ccc(N3CCN(CC4(F)CCN(C(=O)[C@]5(Cc6cccc(Nc7nccs7)n6)CC[C@@H](Oc6cccc(Cl)c6F)CC5)CC4)CC3)nc2)C(=O)N1	NGP	class 1
O=C1CCC(Nc2ccc(N3CCN(CC4CN(C(=O)[C@]5(Cc6cccc(Nc7nccs7)n6)CC[C@@H](Oc6cccc(Cl)c6F)CC5)C4)CC3)cc2)C(=O)N1 (some centres unmarked)	NGP	class 1

----------
Target: AURKA (Homo sapiens, UniProt O14965)
Sequence (O14965 1-403): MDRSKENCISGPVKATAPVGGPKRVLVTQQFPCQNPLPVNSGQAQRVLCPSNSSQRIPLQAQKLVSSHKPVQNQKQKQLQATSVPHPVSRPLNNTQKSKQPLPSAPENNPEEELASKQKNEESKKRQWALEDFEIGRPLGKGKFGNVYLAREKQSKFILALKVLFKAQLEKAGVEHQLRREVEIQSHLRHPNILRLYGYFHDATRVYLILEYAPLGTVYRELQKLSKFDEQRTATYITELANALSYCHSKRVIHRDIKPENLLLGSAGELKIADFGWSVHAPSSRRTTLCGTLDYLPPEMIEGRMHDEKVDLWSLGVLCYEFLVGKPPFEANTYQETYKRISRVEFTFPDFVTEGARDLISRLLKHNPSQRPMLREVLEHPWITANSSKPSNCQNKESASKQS
Experiment: AURKA degradation, Simple Western
Format: cell-based
Set-up: Representative Western blot showing levels of endogenous proteins MDR1, MYCN, AURKA, and CRBN in untreated cell lines; endogenous in cells; host or cells: NGP, IMR-32, SJNB-8, SK-N-BE(2)-C, SK-N-SH, SK-N-AS, SJNB-1, RPE, HEK293T
Settings: NGP, 24 h treatment
Respond with 1 (yes) for Dmax values of 90% and above, 0 (no) for values below.

Compound	Cat
O=C1CCN(c2ccc(N3CCN(CC4CCN(C(=O)[C@]5(Cc6cccc(Nc7nccs7)n6)CC[C@@H](Oc6cccc(Cl)c6F)CC5)CC4)CC3)nc2)C(=O)N1 [PROTAC 24]	1 (yes)
Cc1cc(Nc2ccc(F)c(CC3(C(=O)N4CC(N5CCN(c6ccc(NC7CCC(=O)NC7=O)cc6F)CC5)C4)CCN(Cc4cccc(Cl)c4F)CC3)n2)n[nH]1 (centres unmarked) [PROTAC 29]	0 (no)
Cc1cc(Nc2ccc(F)c(CC3(C(=O)N4CCC(CN5CCC(c6ccc(CN7CCC(=O)NC7=O)cn6)CC5)CC4)CCN(Cc4cccc(Cl)c4F)CC3)n2)n[nH]1 [PROTAC 30]	0 (no)
O=C1CCC(Nc2ccc(N3CCN(C4CN(C(=O)[C@]5(Cc6cccc(Nc7nccs7)n6)CC[C@@H](Oc6cccc(Cl)c6F)CC5)C4)CC3)nc2)C(=O)N1 (some centres unmarked) [PROTAC 20]	1 (yes)
O=C1CCC(N2C(=O)c3ccc(N4CCN(CCNC(=O)[C@]5(Cc6cccc(Nc7nccs7)n6)CC[C@@H](Oc6cccc(Cl)c6F)CC5)CC4)cc3C2=O)C(=O)N1 (some centres unmarked) [PROTAC 4]	1 (yes)
O=C1CCC(N2C(=O)c3ccc(OCCOCCNC(=O)[C@]4(Cc5cccc(Nc6nccs6)n5)CC[C@@H](Oc5cccc(Cl)c5F)CC4)cc3C2=O)C(=O)N1 (some centres unmarked) [SK3277, reference compound]	0 (no)
O=C1CCC(N2C(=O)c3cccc(OCCOCCOCCN4CCN(C(=O)[C@]5(Cc6cccc(Nc7nccs7)n6)CC[C@@H](Oc6cccc(Cl)c6F)CC5)CC4)c3C2=O)C(=O)N1 (some centres unmarked) [PROTAC 3]	0 (no)
O=C1CCC(Nc2ccc(N3CCN(C(=O)CNC(=O)[C@]4(Cc5cccc(Nc6nccs6)n5)CC[C@@H](Oc5cccc(Cl)c5F)CC4)CC3)cc2)C(=O)N1 (some centres unmarked) [PROTAC 14]	0 (no)
O=C1CCN(Cc2ccc(C3CCN(CC4CCN(C(=O)[C@]5(Cc6cccc(Nc7nccs7)n6)CC[C@@H](Oc6cccc(Cl)c6F)CC5)CC4)CC3)nc2)C(=O)N1 [PROTAC 21]	0 (no)

----------
System: NGP
Assay: IncuCyte live-cell imaging, antiproliferative effect
Type: cell-based
Conditions: Homo sapiens, 72 h, read-out: pGI50 (converted)
Experimental readout: GI50 (nM)

Compound	Recorded number
O=C1CCC(Nc2ccc(N3CCN(C(=O)COCCNC(=O)[C@]4(Cc5cccc(Nc6nccs6)n5)CC[C@@H](Oc5cccc(Cl)c5F)CC4)CC3)cc2)C(=O)N1 (stereo partly drawn)	93.3
O=C1CCC(N2C(=O)c3cccc(N4CCN(CCOCCOCCNC(=O)[C@]5(Cc6cccc(Nc7nccs7)n6)CC[C@@H](Oc6cccc(Cl)c6F)CC5)CC4)c3C2=O)C(=O)N1 (stereo partly drawn)	63.1
O=C1CCC(N2C(=O)c3ccc(N4CCN(CCOCCNC(=O)[C@]5(Cc6cccc(Nc7nccs7)n6)CC[C@@H](Oc6cccc(Cl)c6F)CC5)CC4)cc3C2=O)C(=O)N1 (stereo partly drawn)	63.1

----------
Target: AURKA (Homo sapiens, UniProt O14965)
Test: AURKA degradation, Simple Western
Assay type: cell-based
Set-up: Representative Western blot showing levels of endogenous proteins MDR1, MYCN, AURKA, and CRBN in untreated cell lines; endogenous in cells; host or cells: NGP, IMR-32, SJNB-8, SK-N-BE(2)-C, SK-N-SH, SK-N-AS, SJNB-1, RPE, HEK293T
Settings: AURKA degradation

Molecule	Experimental system	pDC50
O=C1CCC(N2C(=O)c3cccc(OCCOCCOCCN4CCN(C(=O)[C@]5(Cc6cccc(Nc7nccs7)n6)CC[C@@H](Oc6cccc(Cl)c6F)CC5)CC4)c3C2=O)C(=O)N1 (some centres unmarked) [PROTAC 3]	AURKA (Homo sapiens, UniProt O14965)	8,06
O=C1CCN(Cc2ccc(C3CCN(CC4CCN(C(=O)[C@]5(Cc6cccc(Nc7nccs7)n6)CC[C@@H](Oc6cccc(Cl)c6F)CC5)CC4)CC3)nc2)C(=O)N1 [PROTAC 21]	AURKA (Homo sapiens, UniProt O14965)	7,97
O=C1CCN(c2ccc(C3CCN(C4CN(C(=O)[C@]5(Cc6cccc(Nc7nccs7)n6)CC[C@@H](Oc6cccc(Cl)c6F)CC5)C4)CC3)nc2)C(=O)N1 [PROTAC 28]	AURKA (Homo sapiens, UniProt O14965)	8,52
O=C1CCC(N2C(=O)c3cccc(OCCOCCOCCOCCNC(=O)[C@]4(Cc5cccc(Nc6nccs6)n5)CC[C@@H](Oc5cccc(Cl)c5F)CC4)c3C2=O)C(=O)N1 (some centres unmarked) [SK2188, reference compound]	AURKA (Homo sapiens, UniProt O14965)	8,41
O=C1CCC(N2C(=O)c3ccc(OCCOCCN4CCN(C(=O)[C@]5(Cc6cccc(Nc7nccs7)n6)CC[C@@H](Oc6cccc(Cl)c6F)CC5)CC4)cc3C2=O)C(=O)N1 (some centres unmarked) [PROTAC 11]	AURKA (Homo sapiens, UniProt O14965)	8,31
